B1: PTPRD (parent)
chain: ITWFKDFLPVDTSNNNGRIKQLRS

variants of: B1; assay: protein stability index of a GFP-peptide fusion (GPS, HEK-293T) (PSI 1-6); higher = more stable; details: c terminus: a fixed tail appended;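 further: lentivirally expressed fusions sorted by FACS into six bins by GFP to DsRed ratio, PSI derived from sequencing read proportions per bin multiplied by bin number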
Use Fulfilled when the recorded protein stability index is no lower than 2; use Not fulfilled when it is lower.

Field: example entries. Status: answers known.
residue change	class name
R18G	Fulfilled
P9M	Fulfilled
F4C	Not fulfilled
S13P	Fulfilled
L22A	Not fulfilled

Asked: Hi team, for `Q21F` , is the recorded protein stability index at or above 2?
Given back: Not fulfilled

Asked: Hi team, for `P9G` , is the recorded protein stability index at or above 2?
Given back: Not fulfilled

Asked: Hi team, for `G17A` , is the recorded protein stability index at or above 2?
Given back: Not fulfilled

Asked: Hi team, for `R23E` , is the recorded protein stability index at or above 2?
Given back: Fulfilled

Asked: Hi team, for `K20G` , is the recorded protein stability index at or above 2?
Given back: Not fulfilled

Asked: Hi team, for `N16V` , is the recorded protein stability index at or above 2?
Given back: Fulfilled

Asked: Hi team, for `G17N` , is the recorded protein stability index at or above 2?
Given back: Not fulfilled

Asked: Hi team, for `W3P` , is the recorded protein stability index at or above 2?
Given back: Fulfilled
